Tested on: HOP-62 NSCLC
Test: NCI-60 one-dose screen, 48 h (100 = growth as untreated, 0 = no growth, -100 = all killed)
Settings: 10 µM unless noted
The panel holds about 83,000 compounds, 20% with a hit somewhere; the sample as a whole holds those more often.
For each record, check the reported growth: if it is below 70% write YES, else write NO.

{"Compound": "Fc1cccc(-c2ccc3c(c2)C2(CCNCC2)CN3)c1", "Class name": "NO"}
{"Compound": "COc1cc(/C=C/C(=O)c2ccc(-n3cc(CN4CCN(c5cc6c(cc5F)c(=O)c(C(=O)O)cn6C5CC5)CC4)nn3)cc2)ccc1O", "Class name": "YES"}
{"Compound": "CSc1nn2c(-c3ccc4ccccc4c3)ccnc2c1C#N", "Class name": "YES"}
{"Compound": "C/C(=N\\O)c1ccc(NC(=O)CSc2nnc(-c3cc(-c4ccc(S(C)(=O)=O)cc4)nc4ccccc34)n2-c2ccccc2)cc1", "Class name": "NO"}
{"Compound": "O=C1c2ccccc2C(=O)C1c1ccc(Br)cc1", "Class name": "NO"}
{"Compound": "O=C(N=Nc1c(O)[nH]c2ccccc12)Nc1ccc(F)cc1", "Class name": "NO"}
{"Compound": "Oc1c(CN2CCCC2)cc(CSCc2ccccc2)c2cccnc12", "Class name": "YES"}
{"Compound": "CN1CCN(c2ccc(NC(=O)c3cncnc3Nc3ccc(OCc4cccc(F)c4)c(Cl)c3)cc2)CC1", "Class name": "YES"}
{"Compound": "Cc1ccc(NC(=O)Cn2c(Br)nc3c2c(=O)n(C)c(=O)n3C)cc1", "Class name": "YES"}
{"Compound": "Cc1ccc(N2C(=O)CCC2=O)cc1", "Class name": "NO"}
{"Compound": "CCNc1nc(O)c(/C=C2\\C=Nc3ncccc32)s1", "Class name": "YES"}
{"Compound": "Cc1ccccc1Nc1cc(O)c2c(=O)cc(-c3ccccc3)oc2c1", "Class name": "YES"}
{"Compound": "C=C1C(=O)O[C@H]2[C@H]1CC/C(COC(=O)c1ccc(C(=O)O)s1)=C\\CC[C@@]1(C)O[C@@H]21", "Class name": "NO"}
{"Compound": "O=C(/C=C/C12c3ccccc3C(c3ccccc31)C1C(=O)NC(=O)C12)c1ccc(Br)cc1 (stereo unspecified)", "Class name": "YES"}
{"Compound": "C/C=C(/C)n1cnc2c(Nc3ccccn3)nc(Cl)nc21", "Class name": "NO"}
{"Compound": "CCN1C2CCC1/C(=C\\c1ccc(F)cc1)C(=O)/C2=C/c1ccc(F)cc1", "Class name": "YES"}
{"Compound": "Cc1ccc(CNc2ccc3nc(CCC(C)C)[nH]c3c2)cc1", "Class name": "NO"}
{"Compound": "COc1ccc(/C=C/C(=O)c2ccc(NC(=O)CSc3nc4c([nH]3)c(=O)n(C)c(=O)n4C)cc2)cc1OC", "Class name": "NO"}
{"Compound": "Cc1ccc(-c2nc(SCc3nc4cc(Cl)c(Cl)cc4[nH]3)[nH]c(=O)c2C#N)cc1", "Class name": "NO"}
{"Compound": "CC1CCN(C(=S)SCC(=O)NC(=O)c2ccccc2)CC1", "Class name": "NO"}
{"Compound": "Cc1ccc(C(=O)Nc2cccc(C#Cc3cccc4[nH]nc(N)c34)c2)cc1C(F)(F)F", "Class name": "YES"}
{"Compound": "CC1(C)N=C(N)N=C(N)N1c1ccc(CCCCc2ccccc2)c(Cl)c1", "Class name": "YES"}
{"Compound": "COC(=O)c1ccc(NC(=O)Nc2ccc(C(=O)OC)cc2)cc1", "Class name": "NO"}
{"Compound": "COc1cc(C(=O)c2c(-c3ccccc3)oc3c(OC)cccc23)cc(OC)c1OC", "Class name": "YES"}
{"Compound": "O=C(CCl)NNc1nccc(Nc2ccc(S(=O)(=O)Nc3ccncc3)cc2)n1", "Class name": "NO"}
{"Compound": "Cn1ccc(=O)nc1", "Class name": "NO"}
{"Compound": "Nc1ccc(-c2csc(-n3[nH]c(=O)ccc3=O)n2)cc1", "Class name": "NO"}
{"Compound": "CCCCCCCC/C=C\\CCCCCCCCOc1ccc(CC(=O)NCC[N+]2(C)CCOCC2)cc1", "Class name": "YES"}
{"Compound": "O=C(C1=Cc2cc3ccccc3n2Cc2cnnn21)c1ccc(O)cc1", "Class name": "YES"}
{"Compound": "O=C(CCCCCCN1CC(=O)N2[C@H](c3ccc(Br)cc3)c3[nH]c4ccccc4c3C[C@@H]2C1=O)NO", "Class name": "YES"}
{"Compound": "Cc1cccc2c1C[C@@]1(C2=O)C(c2ccc(C(C)(C)C)cc2)=NOS1=O (stereo partly specified)", "Class name": "NO"}
{"Compound": "CCn1c(-c2cc3c([nH]c4ccccc43)c(-c3cccc(O)c3)n2)n[nH]c1=S", "Class name": "YES"}
{"Compound": "CCOC(=O)C(=Cc1ccc(-c2ccccc2)cc1)C(=O)OCC", "Class name": "NO"}
{"Compound": "CO[C@H]1CC(=O)n2c3ccccc3c3c4c(c5c6ccccc6n1c5c32)C(=O)NC4=O", "Class name": "YES"}
{"Compound": "COC(=O)c1nc(-c2ccccc2)oc1S(=O)(=O)NCC(c1ccc(Cl)cc1)N1CCOCC1 (stereo unspecified)", "Class name": "NO"}
{"Compound": "O=C(CN1CCN(c2cc3c(cc2F)c(=O)c(C(=O)O)cn3C2CC2)CC1)N/N=C/c1ccco1", "Class name": "NO"}
{"Compound": "CC(=O)ON1CCCC(P(=O)(OCCSC(=O)C(C)(C)C)OCCSC(=O)C(C)(C)C)C1=O (stereo unspecified)", "Class name": "YES"}
{"Compound": "CCS/C(Nc1ccccc1)=C(\\C#N)C(=O)Nc1ccc(OC)cc1", "Class name": "YES"}
{"Compound": "COc1ccc(N2CCN(C(=O)c3sc4nc(C)c(Br)c(C)c4c3N)CC2)cc1", "Class name": "NO"}

* * *

Test system: HT29 colon
Test: NCI-60 one-dose screen, 48 h (100 = growth as untreated, 0 = no growth, -100 = all killed)
Conditions: 10 µM unless noted
Compounds without any hit were thinned out: in the full panel of roughly 83,000, 20% have a hit.
Rule: growth of 90% or more gives MET; anything lower gives NOT MET.

{"Compound": "O=C(Oc1ccc(CCl)cc1)c1ccccc1", "Class name": "NOT MET"}
{"Compound": "NS(=O)(=O)c1ccc(NC(=O)/C(=C\\c2ccc(Cl)cc2Cl)NC(=O)c2ccccc2)cc1", "Class name": "MET"}
{"Compound": "COc1ccc(/C=C/c2ccc3ccccc3n2)c(OC)c1", "Class name": "NOT MET"}
{"Compound": "Cc1ccc(C(=O)c2ccc(CC(=O)N=Nc3c(O)[nH]c4ccc(Br)cc34)n2C)cc1", "Class name": "MET"}
{"Compound": "Cc1c(Cl)cccc1C(=O)Nc1nc2c(s1)CN(C(=O)c1ccc(C(F)(F)F)cc1)CC2", "Class name": "NOT MET"}
{"Compound": "COc1ccc(C(=O)Cn2c(C(=O)c3ccc(OC)cc3)nc3ccccc32)cc1", "Class name": "NOT MET"}
{"Compound": "Fc1cccc(-c2ccc3c(c2)C2(CCNCC2)CN3)c1", "Class name": "MET"}
{"Compound": "CC(=O)OC(c1ccccc1)C1CCOC1=O (stereo not given)", "Class name": "MET"}
{"Compound": "NC(N)=NS(=O)(=O)c1ccc(NC2=C(I)C(=O)c3ncccc3C2=O)cc1", "Class name": "MET"}
{"Compound": "CC1=C2[C@@H](CC1)[C@]1(C)O[C@@](C3CCCCC3)(C[C@H]1OC(=O)CO)[C@H]2OC(=O)/C=C/c1ccccc1", "Class name": "NOT MET"}

* * *

System: LOX IMVI melanoma
Assay: NCI-60 one-dose screen, 48 h
Details: 10 µM unless noted
Compounds without any hit were thinned out: in the full panel of roughly 83,000, 20% have a hit. Calls of active or inactive are those of the source. Rule for the calls: active = growth percent below 10; inactive = the rest.
Classes used: active, inactive

{"Compound": "CCN(CC)CCN1C(=O)c2cccc3c(/C=C/CN4C(=O)c5cccc6cccc(c56)C4=O)ccc(c23)C1=O", "Class name": "inactive"}
{"Compound": "Cc1ccc(S(=O)(=O)N2CCC(=O)c3ccccc32)cc1", "Class name": "inactive"}
{"Compound": "c1ccc(CCNc2c3ccccc3nc3ccccc23)cc1", "Class name": "inactive"}
{"Compound": "CN1CCN(Cc2ccc(NC(=O)c3cncc(C#Cc4cnc(N)c5ncccc45)c3)cc2C(F)(F)F)CC1", "Class name": "active"}
{"Compound": "COc1ccc(-c2nc3c(N)c(CO)cnc3s2)cc1", "Class name": "inactive"}
{"Compound": "Cn1c(=O)c2[nH]c(SCC(=O)Nc3ccc(C(=O)/C=C/c4ccccc4Cl)cc3)nc2n(C)c1=O", "Class name": "inactive"}
{"Compound": "C=C(C)[C@@H]1CCC[C@]2(C(=O)O)CC[C@]3(C)[C@@H](CC[C@@H]4[C@@]5(C)C/C(=C/c6ccncc6)C(=O)C(C)(C)[C@@H]5CC[C@]43C)[C@@H]12", "Class name": "active"}
{"Compound": "COc1ccc(N2CCN(C(=O)c3sc4nc(C)c(Br)c(C)c4c3N)CC2)cc1", "Class name": "inactive"}
{"Compound": "Cc1nc2c(=O)nc3s/c(=C\\c4ccco4)c(=O)n3c2nc1C", "Class name": "inactive"}
{"Compound": "Oc1c(CN2CCC(N3CCCCC3)CC2)cc(Cc2cc(CN3CCC(N4CCCCC4)CC3)c(O)c3ncccc23)c2cccnc12", "Class name": "active"}
{"Compound": "COc1ccc(/C=C(/c2ccccc2)[N+](=O)[O-])c(OC)c1", "Class name": "active"}
{"Compound": "COc1ccc(Cn2cc(C(=O)N=Nc3c(O)[nH]c4c(C)cccc34)nn2)cc1", "Class name": "inactive"}
{"Compound": "COc1cc2c(cc1OCCCCN1CCN(C(=S)SCCC(C#N)(c3ccccc3)c3ccccc3)CC1)N=C[C@@H]1CCCN1C2=O", "Class name": "active"}
{"Compound": "CSC1=Nc2c(c(C)c(-c3ccccc3)n2CCCC(=O)O)C2=NC(=O)C[C@H](C)N12", "Class name": "inactive"}
{"Compound": "O=C1/C(=C/c2ccc(F)cc2)CN(C(=O)C(Cl)Cl)C/C1=C\\c1ccc(F)cc1", "Class name": "active"}
{"Compound": "COc1ccc(-c2cc(-c3ccccc3)nc(N3CCN(CCNc4ccnc5cc(Cl)ccc45)CC3)n2)cc1", "Class name": "active"}
{"Compound": "Nc1c(C(=O)Nc2cccc(Cl)c2)sc2nc3c(cc12)CCCC3", "Class name": "inactive"}
{"Compound": "C#Cc1cccc(Nc2nc(C)nc3cc(NC(=O)CCl)ccc23)c1", "Class name": "active"}
{"Compound": "CCN1C(=O)N(CC)C2Nn3c(s/c(=C\\c4ccccc4Br)c3=O)=NC21 (configuration not stated)", "Class name": "inactive"}
{"Compound": "CC(C)(C)n1cc(-c2ccnc(NCCCNS(=O)(=O)c3ccc(C(F)(F)F)cc3)c2)c(-c2cccc(F)c2)n1", "Class name": "inactive"}
{"Compound": "N#CC1CCc2c(c(-c3ccc4nc(N)sc4c3)nc3ccc4[nH]ncc4c23)C1 (configuration not stated)", "Class name": "inactive"}
{"Compound": "COc1cc(NC(=O)c2cncnc2Nc2ccc3c(ccn3Cc3ccccn3)c2)cc(OC)c1", "Class name": "inactive"}
{"Compound": "CN1CCN(CC(=O)Nc2ccc3ncnc(Nc4ccc(Oc5cccc(C(F)(F)F)c5)c(Cl)c4)c3c2)CC1", "Class name": "active"}
{"Compound": "C#CCOc1cccc(-c2ncnc3cc(NC(=O)C=C)ccc23)c1", "Class name": "inactive"}
{"Compound": "O=C1/C(=C/c2ccccn2)NC(=S)N1c1ccccc1Cl", "Class name": "inactive"}
{"Compound": "S=c1nc2oc(-c3ccccc3)c(-c3ccccc3)c2c(/N=C\\c2ccco2)[nH]1", "Class name": "inactive"}
{"Compound": "O=c1nc(-c2ccccc2)c2cc(-c3ccc(C(F)(F)F)nc3)ccc2[nH]1", "Class name": "inactive"}
{"Compound": "CCOC(=O)c1cnc2c(N=Nc3ccc(OC)cc3)c(N)nn2c1N", "Class name": "inactive"}
{"Compound": "N[C@H]1CCC[C@@H]1NCCCCN1C(=O)c2cccc3cc([N+](=O)[O-])cc(c23)C1=O", "Class name": "inactive"}
{"Compound": "COc1ccccc1N(C(C)=O)C1=C(Cl)C(=O)c2ccccc2C1=O", "Class name": "active"}
{"Compound": "COc1cc(/C=C/C(=O)/C=C(O)/C=C/c2ccc(OC(=O)C34CC5CC(CC(C5)C3)C4)c(OC)c2)ccc1OC(=O)C12CC3CC(CC(C3)C1)C2", "Class name": "inactive"}
{"Compound": "O=C1/C(=C\\c2cccc3nccnc23)SC(=S)N1CCc1ccc(O)cc1", "Class name": "inactive"}
{"Compound": "CCCC(CC)(C(=O)Nc1ccc2nc(C)cc(N)c2c1)C(=O)Nc1ccc2nc(C)cc(N)c2c1", "Class name": "inactive"}
{"Compound": "CNCc1cccc2c1OCCOCCOCCNS(=O)(=O)c1ccc(cc1)-c1cnc(N)c(n1)C(=O)N2", "Class name": "active"}
{"Compound": "COc1ccc2c(c1)c(-c1nc(-c3c[nH]c4ncccc34)cs1)cn2CCO", "Class name": "inactive"}
{"Compound": "NS(=O)(=O)c1ccc(C(=O)NN2C(=O)c3c(Br)c(Br)c(Br)c(Br)c3C2=O)cc1", "Class name": "inactive"}
{"Compound": "COc1cccc(NCc2nnc(Nc3ccc(Cl)cc3)c3ccccc23)c1", "Class name": "active"}
